test system: Human papillomavirus type 1a E7 protein (residues 1-88); test: HPV1a E7 small-molecule binders, primary screen, biochemical, small-molecule microarray, residues 1-88, 635 nm (AID 1129); details: small-molecule microarray binding, fluorescence 635 nm; higher = more signal
# binarize composite z-score: threshold 1 inclusive, high side 1 (yes), low side 0 (no)

Observe how each entry below is paired with its result.
COCCOC(=O)N1C(=O)[C@@]2(c3cc(C#CCNC(N)=O)ccc31)[C@H](C(=O)N1CCN(c3ncccn3)CC1)[C@H]1C(=O)O[C@H](c3ccccc3)[C@H](c3ccccc3)N1[C@@H]2c1ccc(O)cc1 | 0 (no)
COCCOC(=O)N1C(=O)[C@@]2(c3cc(C#CCCO)ccc31)[C@H](c1ccc(O)cc1)N1[C@H](c3ccccc3)[C@H](c3ccccc3)OC(=O)[C@H]1[C@@H]2C(=O)NC[C@H](O)c1ccccc1 | 1 (yes)
COc1ccc(C(=O)Nc2ccc(CN3C(=O)[C@@]4(O[C@@H](CC(=O)N(CCO)Cc5ccccc5)[C@H]([Si](C)(C)c5ccc(OC)cc5)[C@H]4C)c4ccccc43)cc2)cc1 | 0 (no)
[N-]=[N+]=NCc1ccccc1[C@H]1OC(c2ccc(OCCCO)cc2)=N[C@@]1(CCS(=O)(=O)c1ccccc1)C(=O)NCCN1CCOCC1 | 1 (yes)
C=CCC(OC(C)=O)[C@@H]1[C@@H](N(Cc2cccc3ccccc23)C(=O)c2ccc(C)cc2)c2cc(OCCCO)ccc2N1C(=O)Cc1ccc2ccccc2c1 (stereo partly drawn) | 0 (no)

In the following, a different molecule is considered.
### Prompt Given the entry `O=C(O)C1=CC[C@H]2C(=O)N(c3ccccc3)C(=O)[C@@H]12` , answer whether its composite z-score meets or surpasses 1.
### Response 1 (yes)

====

assay: small-molecule microarray binders of probe aLefty2, primary screen, biochemical, biotinylated probe, 635/667 nm fluorescence (AID 1094); details: higher = more signal;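 also: score merges spot fluorescence near 667 nm with spot signal-to-noise ratio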
Quantity Kind: composite z-score
The answer should be written as a number, with no unit following it.

### Prompt Need composite z-score of `CCCN1C(=O)[C@@]2(c3ccc([N+](=O)[O-])cc3)CC(=O)N(C3CCCCC3)[C@@H]2c2ccc(CO)cc21` , thanks.
### Response 0.198

### Prompt Need composite z-score of `CC(C)[Si](C#Cc1ccccc1)(O[C@H](c1ccccc1)c1cn(Cc2ccccc2)nn1)C(C)C` , thanks.
### Response -0.195

### Prompt Need composite z-score of `COCCOC(=O)N1C(=O)[C@@]2(c3ccccc31)[C@H](C(=O)Nc1nc3ccccc3s1)[C@H]1C(=O)O[C@H](c3ccccc3)[C@H](c3ccccc3)N1[C@@H]2c1ccccc1OCCO` , thanks.
### Response 0.248

### Prompt Need composite z-score of `C=CCNC(=O)[C@@H]1[C@H]2C(=O)O[C@H](c3ccccc3)[C@H](c3ccccc3)N2[C@H](c2ccc(OCCO)cc2)[C@@]12C(=O)N(C(=O)OCCOC)c1ccccc12` , thanks.
### Response -0.0267

### Prompt Need composite z-score of `CCOC(=O)C1=CC[C@@H](c2ccccc2)N(S(=O)(=O)c2ccc(C)cc2)[C@@H]1C#N` , thanks.
### Response 0.0979

### Prompt Need composite z-score of `C=CCNC(=O)[C@H]1[C@@H]2C(=O)O[C@@H](c3ccccc3)[C@@H](c3ccccc3)N2[C@@H](c2ccc(O)cc2)[C@]12C(=O)Nc1ccc(C#CCC(C(=O)OC)C(=O)OC)cc12` , thanks.
### Response -0.0478
